test system: U2OS; assay: mean OPP incorporation (global translation) relative to DMSO (% of DMSO); higher = more protein synthesis; settings: 3 µM; 24 h
Structures can show the parent of a compound that is named as a salt.
// map mean OPP incorporation onto a label; ranges 0: < 80; 1: ≥ 80 and < 100; 2: ≥ 100

Some solved cases for reference:
# molecule, label
measured = [
    ("CCC(=O)CCCCC[C@@H]1NC(=O)[C@H]2CCCCN2C(=O)[C@H]([C@@H](C)CC)NC(=O)[C@H](Cc2cn(OC)c3ccccc23)NC1=O [Apicidin]", 1),
    ("COc1cc(C)c(/C=C/C(C)=C/C=C/C(C)=C/C(=O)O)c(C)c1C [Acitretin]", 2),
    ("Cc1c(-c2ccc(O)cc2)n(Cc2ccc(OCCN3CCCCCC3)cc2)c2ccc(O)cc12 [Bazedoxifene HCl]", 2),
    ("Oc1ccc(Nc2nc(-c3ccc(Cl)cc3)cs2)cc1 [SKI II]", 1),
    ("COc1ccccc1S(=O)(=O)Nc1ccc2c(c1)CN(C)C(=O)N2 [PFI-1]", 0),
]

Turning now to a further molecule:
Exercise: State the class of the molecule shown: COc1cc2c(cc1C(F)(F)F)N(C(=O)Nc1cc(F)cc(-c3cccnc3)c1)CC2
Key: 2

Where do the numbers come from? From the supplement of paper PMC8183993.
